Consider the following compounds; for each one, report its pEC50.
System: NQ01 specific enzyme activity in BEAS-2B cells (marker for Nrf2 activation)
method.summary: BEAS-2B NQ01 MTT Assay
Type: cell-based
recorded.conditions: Homo sapiens; NQ01 specific activity induction in BEAS-2B cells, 48 hours incubation with compound
pEC50: −log10 of the molar value.

The following compounds have reported results that may help.
Data request: Note pEC50 for the compound shown: Cc1c([C@H](c2ccc3c(c2)[C@H](N2CC(=O)N(C)CC(C)(C)C2)CC3)C(C)(C)C(=O)O)ccc2c1nnn2C (relative stereo)
Data returned: > 9.00

Data request: Note down pEC50 recorded for CCn1cc(CCC(c2ccc(Cl)c(CN3CC(=O)N(C)CC(C)(C)C3)c2)C(C)(C)C(=O)O)nn1 (stereo not drawn)
Data returned: > 9.00

Data request: Provide measured pEC50 value, entry: Cc1ccc([C@@H](c2ccc3c(nnn3C)c2C)C(C)(C)C(=O)O)cc1CN1CC(=O)N(C2CC2)CC(C)(C)C1
Data returned: 8.00 to 9.00

Data request: Given the compound Cc1c([C@H](c2ccc3c(c2)[C@@H](N2CC(=O)N(C)CC(C)(C)C2)CC3)C(C)(C)C(=O)O)ccc2c1nnn2C (relative stereo) , write its reported pEC50.
Data returned: 8.00 to 9.00

Data request: Tell me measured pEC50 for Cc1ccc(C(c2ccc3c(nnn3C)c2C)C(C)(C)C(=O)O)cc1CN1CC(=O)N(CC2CC2)CC(C)(C)C1 (stereo not drawn) please.
Data returned: 7.00 to 8.00

Data request: Identify the reported pEC50 for the following entry. CCC1CN(Cc2cc(C(c3ccc4c(nnn4C)c3C)C(C)(C)C(=O)O)ccc2C)CC(=O)N(C)C1 (stereo not drawn)
Data returned: 8.00 to 9.00

Data request: Give pEC50 for the following compound: CCN1CC(C)(C)CN(Cc2cc([C@@H](c3ccc4c(nnn4C)c3C)C(C)(C)C(=O)O)ccc2C)CC1=O
Data returned: 8.00 to 9.00

Data request: Tell me measured pEC50 for Cc1c(C(c2ccc3c(c2)C(N2CC(=O)N(C)CC(C)(C)C2)CC3)C(C)(C)C(=O)O)ccc2c1nnn2C (stereo not drawn) [Example 13] please.
Data returned: 6.00 to 7.00

We next turn to a different compound, shown below.
Data request: Identify the reported pEC50 for the following entry. Cc1ccc([C@@H](c2ccc3c(nnn3C)c2C)C(C)(C)C(=O)O)cc1CN1CCCN(C)C(=O)C1
Data returned: 6.00 to 7.00
